The reported numbers originate from PubChem BioAssay (NCI).

- System: MDA-MB-468 breast
- protocolSummary: NCI-60 one-dose screen, 48 h (100 = growth as untreated, 0 = no growth, -100 = all killed)
- conditionNotes: 10 µM unless noted
Compounds without any hit were thinned out: in the full panel of roughly 83,000, 20% have a hit.
Each entry below lists one item and its recorded growth value.
valueKind: growth (%)

# compound, outputUnit, testResult
measured = [
    ("Cc1ccc(C)c(-c2csc(Nc3ccc(C)c(C)c3)n2)c1", "%", 14.5),
    ("C#C[C@@]1(O)[C@@H](CO)O[C@@H](n2cc(I)c3c(N)ncnc32)[C@@H]1O", "%", -37.7),
    ("C#CC[C@@H]1C[C@]2(C)[C@H]3CC[C@@H]4[C@H]5[C@H](C(=C)C)CC[C@]5(C(=O)O)CC[C@@]4(C)[C@]3(C)CC[C@H]2C(C)(C)[C@H]1O", "%", -2.92),
    ("C=CCC(OC(C)=O)c1ccc(C(C)C)cc1 (centres undefined)", "%", 105),
    ("COc1ccc(C2CC(c3ccc(Nc4nc(Nc5ccc(F)cc5)nc(Nc5ccc(Cl)cc5)n4)cc3)=NN2C(C)=O)cc1 (centres undefined)", "%", 104),
    ("O=C(Nc1ccc(F)cc1F)c1cc(I)ccc1O", "%", -1.05),
    ("O=C(O)c1cn(-c2ccccc2)nc1-c1ccc(O)cc1", "%", 98.3),
    ("O=S(=O)(Oc1ccc(-c2ccc3sccc3c2)cc1)c1ccc(F)cc1", "%", 86.9),
    ("C=CCNC(=O)Cc1c(-c2ccc(OC)cc2)oc2c(OC)c3c(c(OC)c12)OCO3", "%", 94.9),
]

---

- Test system: MDA-MB-468 breast
- protocolSummary: NCI-60 one-dose screen, 48 h
- conditionNotes: 10 µM unless noted
This is part of a sample that, as a whole, favours compounds with a hit. Of some 83,000 tested, about 20% had one in any assay. Calls of active or inactive are those of the source. Rule for the calls: active = growth percent below 10; inactive = the rest.
Classes used: active, inactive

# molecule, answerLabel
measured = [
    ("COc1ccc(C2=NN(C(C)=O)C(c3c(C)nn(-c4ccccc4)c3N3CCOCC3)C2)cc1 (stereo not given)", "inactive"),
    ("COc1ccc(COC=O)cc1", "inactive"),
    ("CC1=C(C)C(=O)C(Nc2ccc3c(c2)OCO3)=C(Br)C1=O", "inactive"),
    ("C=C1CC[C@@H]2[C@](C)(COC(C)=O)[C@H](OC(C)=O)CC[C@@]2(C)[C@@H]1CC(NCc1ccc(F)cc1)C1=CCOC1=O (stereo not given in full)", "inactive"),
    ("C[C@@H](Oc1cc(-c2cnn(C3CC4(CCNCC4)C3)c2)cnc1N)c1c(F)ccc(Cl)c1Cl", "active"),
    ("COc1ccc(/C=C2\\N=C3SC=C(N)N3C2=O)cc1", "active"),
    ("COc1ccc(-c2nc(SCCC(C)C)nc(N/N=C(/C)c3ccc(N)cc3)c2C#N)cc1", "inactive"),
    ("CCN(C(=O)CN1CCN(c2cc3c(cc2F)c(=O)c(C(=O)O)cn3CC)CC1)c1nc(-c2ccccc2)cs1", "active"),
    ("CC(C)NCCCCCNc1cc(O)cc2cccnc12", "inactive"),
    ("CC(=O)c1ccc(C)cc1", "inactive"),
    ("CS(=O)(=O)Nc1cccc(C(=O)NCc2ccc(N3CCOCC3)cc2)c1", "inactive"),
    ("c1ccc(/C(=N\\N=C(/c2ccccc2)c2cccs2)c2cccs2)cc1", "inactive"),
    ("COc1ccc(-c2nn(-c3ccc(NC(=O)Nc4ccc(Cl)c(Cl)c4)cc3)cc2-c2ccncc2)cc1Cl", "active"),
    ("CCCCCCCC/C=C\\CCCCCCCCOc1ccccc1CC(=O)NCC[N+]1(C)CCCC1", "inactive"),
    ("COc1ccc(C2CC(c3cccc(OCCCCOc4cccc(C5=NOC(c6ccc(OC)cc6)C5)c4)c3)=NO2)cc1 (stereo not given)", "inactive"),
    ("O=C(Nc1cccc(-n2ccc3c(NC(=O)c4ccccc4)ncnc32)c1)Nc1ccc(Cl)c(C(F)(F)F)c1", "active"),
    ("O=C(/C=C/c1ccccc1)CC(c1ccccc1)N1CCOCC1 (stereo not given)", "inactive"),
    ("O=[N+]([O-])c1ccccc1C(O)Cc1ccc2ccccc2n1 (stereo not given)", "inactive"),
    ("CCNc1nc(-c2ccc(Cl)c(OC)c2)c(-c2ccnc(NCCNS(=O)(=O)c3ccc(Cl)cc3)n2)s1", "active"),
    ("Cc1c2cccnc2c(C)c2c1c1cc(CO)ccc1n2C", "active"),
]

---

Quick reference: growth of the listed items.
- Tested on: MDA-MB-468 breast
- protocolSummary: NCI-60 one-dose screen, 48 h (100 = growth as untreated, 0 = no growth, -100 = all killed)
- conditionNotes: 10 µM unless noted
The panel holds about 83,000 compounds, 20% with a hit somewhere; the sample as a whole holds those more often. Active and inactive are the calls of the source. The calls were made as follows: active = growth percent below 10; inactive = the rest.

# compound, growth
rows = [
    ("CCCCCc1ccc(S(=O)(=O)N(C(C)=O)c2cccc(-c3csc(N(CCN4CCN(C)CC4)C(C)=O)n3)c2)cc1", "-10.9% (active)"),
    ("c1cc(CNC23CC4CC(CC(C4)C2)C3)cc(C[N+](Cc2cccc(CNC34CC5CC(CC(C5)C3)C4)c2)(Cc2cccc(CNC34CC5CC(CC(C5)C3)C4)c2)Cc2cccc(CNC34CC5CC(CC(C5)C3)C4)c2)c1 (centres undefined)", "-47.1% [42 µM] (active)"),
    ("O=C(Nc1ccc2ccccc2c1)c1cc2ccccc2cc1O", "123% (inactive)"),
    ("O=C1/C(=C/c2cccc3cnccc23)Cc2cc(F)ccc21", "65.2% (inactive)"),
]

---

- System: MCF7 breast
- protocolSummary: NCI-60 one-dose screen, 48 h (100 = growth as untreated, 0 = no growth, -100 = all killed)
- conditionNotes: 10 µM
The panel holds about 83,000 compounds, 20% with a hit somewhere; the sample as a whole holds those more often.
Would you mind sorting the entries by growth according to these classes? lower range = under 10%, middle range = from 10% up to 20%, upper range = 20% and over

# molecule, answerLabel
data = [
    ("CC1(C)CC[C@]2(C(=O)O)CC[C@]3(C)C(=CCC4[C@@]5(C)C[C@@H](O)[C@@H]6OC(c7cccc(F)c7)OC[C@@]6(C)C5CC[C@]43C)C2C1 (stereo not given in full)", "upper range"),
    ("Cn1cc(-c2cc(N)n3nc(-c4cn(C)c5ccccc45)cc3n2)c2cc(F)ccc21", "lower range"),
    ("Cc1ccc2c(c1)C(=O)/C(=C/c1c[nH]c3ccccc13)S2", "middle range"),
    ("Cc1ccc(COc2ccc(NC(=O)Nc3ccc(Cl)c(C(F)(F)F)c3)cc2)cc1", "upper range"),
    ("COc1ccccc1-n1cc(C#N)c(N)c1C(=O)c1ccc(Cl)cc1Cl", "middle range"),
    ("CCOc1ccc(/C=N/NC(=O)Cn2nc(Cc3ccc(OC)cc3)c3onc(C)c3c2=O)cc1", "upper range"),
    ("COc1ccc(NCc2cn(-c3ccc(C(=O)O)cc3)nc2-c2ccc(F)cc2)cc1C(F)(F)F", "upper range"),
    ("O=C(Nc1ccc(OCc2ccc(F)cc2)cc1)Nc1ccc(Cl)c(C(F)(F)F)c1", "lower range"),
    ("Fc1ccc(/C=C/c2nc3ccccc3n3c(-c4ccc(Cl)cc4)nnc23)cc1", "middle range"),
    ("Cc1ccc(-c2nc(C#N)c(S(=O)(=O)N3CCN(S(C)(=O)=O)CC3)o2)cc1", "lower range"),
]

---

- Test system: NCI/ADR-RES ovarian
- protocolSummary: NCI-60 one-dose screen, 48 h (100 = growth as untreated, 0 = no growth, -100 = all killed)
- conditionNotes: 10 µM
About 83,000 compounds went through this panel and 20% of them were active in at least one assay; those are over-represented in the sample as a whole.
Decide by growth: equal to or exceeding 80% means 1, less means -1.

# compound, answerLabel
data = [
    ("O=C(Nc1ccc(OCC(=O)c2ccc(Cl)cc2)cc1)Nc1ccc(Cl)c(C(F)(F)F)c1", -1),
    ("C#C[C@]1(O)CC[C@H]2[C@@H]3CC=C4c5sc(Nc6ccc(N(C)C)cc6)nc5CC[C@]4(C)[C@H]3CC[C@@]21C", -1),
    ("COC(=O)CNC(=O)COc1c(OC)c(OC)cc2oc(-c3cccc(C(=O)Nc4ccc(Cl)cc4)c3)cc(=O)c12", -1),
    ("COc1ccc(OC)c(-n2cc(C#N)c(N)c2C(=O)c2ccc(Cl)cc2Cl)c1", -1),
    ("COc1cc2oc(-c3cccc(C(=O)Nc4ccc(Cl)cc4)c3)cc(=O)c2c(OCCN)c1OC", -1),
    ("Fc1ccc(-c2csc(Nc3cccc(Nc4nc(-c5ccc(F)cc5)cs4)c3)n2)cc1", -1),
    ("Cn1cc(-c2nnc(N)nc2-c2c[nH]c3ccc(F)cc23)c2cc(Br)cnc21", -1),
    ("COc1cc(C2CC(c3ccc(Oc4ccc(Cl)cc4)cc3)=NN2c2nc(-c3ccc(Cl)cc3)c(C#N)c(N3CCOCC3)n2)cc(OC)c1OC (configuration not stated)", 1),
    ("Cc1ccc2c(c1)C(=O)/C(=C/c1c[nH]c3ccccc13)S2", -1),
    ("O=C(Nc1ccc(Oc2ncnc3scc(Nc4n[nH]c(=S)s4)c23)cc1)C1(C(=O)Nc2cccc(C(F)(F)F)c2)CC1", 1),
    ("COc1ccc(C(=O)COc2ccc(NC(=O)Nc3ccccc3)cc2)cc1", 1),
    ("COc1ccc(NCc2cn(-c3ccc(C(=O)O)cc3)nc2-c2ccc(F)cc2)cc1C(F)(F)F", -1),
    ("Cn1cc(-c2nnc(N)nc2-c2c[nH]c3ccccc23)c2cc(Br)cnc21", -1),
    ("COc1ccc(-n2c(SCC(=O)NNS(=O)(=O)c3ccccc3)nc3ccc(Cl)cc3c2=O)cc1", 1),
    ("O=C(CC(=O)Nc1ccc(Oc2ncnc3scc(Nc4n[nH]c(=S)s4)c23)cc1)Nc1ccc(Br)cc1", 1),
    ("COc1cc(-c2nc3ccc(C)cc3[nH]2)ccc1OCc1nnc(-c2ccccc2Br)o1", -1),
    ("Cn1cc(-c2cc(N)n3nc(-c4cn(C)c5ccccc45)cc3n2)c2cc(F)ccc21", -1),
]
